meta.source: ChEMBL document CHEMBL1133829

tgt: Histone deacetylase 1 (Homo sapiens, UniProt Q13547)
Sequence (Q13547 whole entry): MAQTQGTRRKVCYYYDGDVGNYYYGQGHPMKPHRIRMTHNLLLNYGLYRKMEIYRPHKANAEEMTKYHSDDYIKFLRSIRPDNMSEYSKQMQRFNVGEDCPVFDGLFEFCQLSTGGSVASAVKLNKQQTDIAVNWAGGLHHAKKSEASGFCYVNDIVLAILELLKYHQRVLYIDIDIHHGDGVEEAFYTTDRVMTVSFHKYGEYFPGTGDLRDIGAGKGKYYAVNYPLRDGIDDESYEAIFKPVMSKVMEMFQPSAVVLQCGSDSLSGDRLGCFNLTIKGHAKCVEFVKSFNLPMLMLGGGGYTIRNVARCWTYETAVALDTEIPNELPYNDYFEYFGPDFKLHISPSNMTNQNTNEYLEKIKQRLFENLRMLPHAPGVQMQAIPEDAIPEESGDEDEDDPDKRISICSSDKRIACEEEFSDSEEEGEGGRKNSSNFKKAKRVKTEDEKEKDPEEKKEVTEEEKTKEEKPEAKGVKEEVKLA
assayMethodText: Concentration of compound required for acetylation of histone-4 in human T24 cancer cells
pEC50: −log10 of the molar value.
experimentalEndpoint: pEC50

Field: example entries. Status: answers known.
Any idea what pEC50 was measured for O=C(/C=C/c1ccc(NS(=O)(=O)c2ccc(Cl)c(Cl)c2)cc1)NO ?
5.30

And then O=C(CCc1ccc(NS(=O)(=O)c2ccccc2)cc1)NO , what is it?
5.30

1. COc1ccc(S(=O)(=O)Nc2ccc(/C=C/C(=O)NO)cc2)cc1
2. COc1ccc(S(=O)(=O)Nc2ccc(/C=C/C(=O)NO)cc2)cc1OC
3. Cc1ccc(S(=O)(=O)Nc2ccc(/C=C/C(=O)NO)cc2)cc1
Please rank these molecules by pEC50 in descending order. // format: requested-order list of labels
2, 1, 3
(2: 6.00, 1: 5.30, 3: 5.00)

###

tgt: Histone deacetylase 1 (Homo sapiens, UniProt Q13547)
assayMethodText: In vitro inhibition of partially purified recombinant human Histone deacetylase 1
experimentalEndpoint: IC50 (nM)

a. COc1ccc(S(=O)(=O)Nc2ccc(/C=C/C(=O)NO)cc2)cc1
b. O=C(/C=C/c1ccc(NS(=O)(=O)c2ccc(Cl)c(Cl)c2)cc1)NO
c. O=C(Cc1ccc(NS(=O)(=O)c2ccccc2)cc1)NO
Place the item with the largest IC50 first, then continue in falling order, using the list above. Ranked list of labels, please, in the requested order.
c, b, a
(c: 1000 nM, b: 100 nM, a: 60 nM)

###

tgt: UniProt:Q13547
assayMethodText: Concentration of compound required for acetylation of histone-4 in human T24 cancer cells
pEC50: −log10 of the molar value.
Listed here are compounds together with their documented pEC50.

# example entries with known answers
Entry O=C(Cc1ccc(NS(=O)(=O)c2ccccc2)cc1)NO has what pEC50?
< 4.60

# iterate: O=C(/C=C/c1ccc(NS(=O)(=O)c2ccc(Cl)cc2Cl)cc1)NO
< 4.60

Continuing:
What value of pEC50 has been reported for the following compound? CC(C)C(Cc1ccc(NS(=O)(=O)c2ccccc2)cc1)C(=O)NO (stereo not drawn)
< 4.60
